# Test system: mice
# experimentNotes: Writhing assay (phenylbenzoquinone-induced writhing)
# Format: in vivo, mouse
# conditionsUsed: screening dose 10 mg/kg s.c., 30 min before phenylbenzoquinone i.p.
observationType: Writhing Mouse Subc.

molecule: C[C@@H](NC(=O)OCc1ccccc1)C(=O)N1CCCc2ccccc21
measuredValue: Inactive
--
molecule: Cc1cc(O)cc(C)c1CC(NC(=O)OC(C)(C)C)C(=O)N[C@H](C)C(=O)NCCOc1ccccc1 (mixture of isomers)
measuredValue: Active
--
molecule: Cc1cc(O)cc(C)c1C[C@H](N)C(=O)N[C@@H](C)C(=O)N1CCCc2ccccc21.Cl (relative stereo)
measuredValue: Inactive
--
molecule: Cc1cc(O)cc(C)c1C[C@H](N)C(=O)N[C@H](C)C(=O)NCCC(c1ccccc1)c1ccccc1.Cl
measuredValue: Active
